These entries and their values trace back to ChEMBL document CHEMBL5137044.

Test system: Human immunodeficiency virus 1
assay_name: Antiviral activity against drug-resistant HIV-1 Y188L mutant infected in human MT4 cells assessed as reduction in virus-induced cytopathic effect incubated for 5 days by MTT assay
Assay type: functional, organism-based
particulars: Human immunodeficiency virus 1, Y188L mutant, MT4, 120 h
pEC50: −log10 of the molar value.
This listing pairs compounds with measured pEC50.
assay_readout: pEC50

[[record]]
compound = "O=C1Nc2ccc(Cl)cc2[C@@](C#CC2CC2)(C(F)(F)F)O1"
result = 6.69

[[record]]
compound = "Cc1c(C(C#N)c2ccccc2C(F)(F)F)nc(SC(C)C)[nH]c1=O (stereo not drawn)"
result = "< 3.60"

[[record]]
compound = "Cc1c(C(C#N)c2cc(F)cc(Cl)c2)nc(SC(C)C)[nH]c1=O (stereo not drawn)"
result = "< 3.86"

[[record]]
compound = "Cc1c(C(C#N)c2ccccn2)nc(SC(C)C)[nH]c1=O (stereo not drawn)"
result = "< 3.52"

[[record]]
compound = "Cc1c(C(C#N)c2c(F)cccc2F)nc(SC(C)C)[nH]c1=O (stereo not drawn)"
result = 4.16

[[record]]
compound = "Cc1c(C(C#N)c2ccc(F)cc2)nc(SC(C)C)[nH]c1=O (stereo not drawn)"
result = "< 3.95"

[[record]]
compound = "Cc1cccc(C)c1C(C#N)c1nc(SC(C)C)[nH]c(=O)c1C (stereo not drawn)"
result = "< 4.17"

[[record]]
compound = "Cc1c(C(C#N)c2ccc(Br)cc2)nc(SC(C)C)[nH]c1=O (stereo not drawn)"
result = "< 4.33"

[[record]]
compound = "Cc1c(C(C#N)c2cc(C(F)(F)F)cc(C(F)(F)F)c2)nc(SC(C)C)[nH]c1=O (stereo not drawn)"
result = "< 3.54"

[[record]]
compound = "Cc1c(C(C#N)c2cc(Cl)cc(C(F)(F)F)c2)nc(SC(C)C)[nH]c1=O (stereo not drawn)"
result = "< 4.64"

[[record]]
compound = "Cc1c(C(C#N)c2ccccc2Br)nc(SC(C)C)[nH]c1=O (stereo not drawn)"
result = 4.27

[[record]]
compound = "Cc1cccc(C(C#N)c2nc(SC(C)C)[nH]c(=O)c2C)c1 (stereo not drawn)"
result = 4.18

[[record]]
compound = "COc1cc(F)cc(C(C#N)c2nc(SC(C)C)[nH]c(=O)c2C)c1 (stereo not drawn)"
result = 4.26


====

assay_name: Selectivity index, ratio of CC50 for human MT4 cells to EC50 for antiviral activity against NNRTI resistant HIV-1 infected in human MT4 cells
Type: toxicity, cell-based
particulars: read-out: Ratio CC50/EC50
Reported selectivity ratio is given for each of the following molecules.
assay_readout: selectivity ratio

[[record]]
molecule = "Cc1cn([C@H]2C[C@H](N=[N+]=[N-])[C@@H](CO)O2)c(=O)[nH]c1=O"
sign_qualifier = ">"
quantitative_readout = 309

[[record]]
molecule = "Cc1c(C(C#N)c2ccccc2Br)nc(SC(C)C)[nH]c1=O (configuration not stated)"
sign_qualifier = "="
quantitative_readout = 676

[[record]]
molecule = "Cc1cccc(C(C#N)c2nc(SC(C)C)[nH]c(=O)c2C)c1 (configuration not stated)"
sign_qualifier = "="
quantitative_readout = 1180

[[record]]
molecule = "Cc1c(C(C#N)c2ccc(C(C)C)cc2)nc(SC(C)C)[nH]c1=O (configuration not stated)"
sign_qualifier = "="
quantitative_readout = 376

[[record]]
molecule = "Cc1c(C(C#N)c2ccccc2C(F)(F)F)nc(SC(C)C)[nH]c1=O (configuration not stated)"
sign_qualifier = "="
quantitative_readout = 96

[[record]]
molecule = "Cc1c(C(C#N)c2cc(F)cc(Cl)c2)nc(SC(C)C)[nH]c1=O (configuration not stated)"
sign_qualifier = "="
quantitative_readout = 363

[[record]]
molecule = "Cc1c(C(C#N)c2cccc(C(F)(F)F)c2)nc(SC(C)C)[nH]c1=O (configuration not stated)"
sign_qualifier = "="
quantitative_readout = 65

